# experiment.summary: Selectivity index, ratio of CC50 for African green monkey Vero cells to EC50 for Zika virus PRVABC-59
# Format: toxicity
# condition.notes: read-out: Ratio CC50/EC50
Please enter true where selectivity ratio is greater than or equal to 7, and false where it is lower.

[[record]]
structure_smiles = "C=C1CC[C@@H]2[C@](C)(CO)[C@H](O)CC[C@@]2(C)[C@@H]1C/C=C1/C(=O)OC[C@H]1Oc1cccnc1[N+](=O)[O-]"
category_label = "false"

[[record]]
structure_smiles = "C=C1CC[C@H]2[C@@](C)(CCC(=O)[C@@]2(C)COC(C)=O)[C@@H]1C/C=C1/C(=O)OC[C@@H]1Oc1c(Cl)cc(Cl)c2cccnc12"
category_label = "false"

[[record]]
structure_smiles = "C=C1CC[C@@H]2[C@]3(C)COC(C)(C)O[C@@H]3CC[C@@]2(C)[C@@H]1C/C=C1/C(=O)OC[C@@H]1Oc1cccc2ccc(C)nc12"
category_label = "false"

[[record]]
structure_smiles = "C=C1CC[C@@H]2[C@]3(C)COC(C)(C)O[C@@H]3CC[C@@]2(C)[C@@H]1C/C=C1/C(=O)OC[C@@H]1Oc1cccc2cccnc12"
category_label = "false"

[[record]]
structure_smiles = "C=C1CC[C@@H]2[C@](C)(CO)[C@H](O)CC[C@@]2(C)[C@@H]1C/C=C1/C(=O)OC[C@@H]1Oc1c(Cl)cc(Cl)c2cccnc12"
category_label = "true"

[[record]]
structure_smiles = "C=C1CC[C@@H]2[C@](C)(COC(C)=O)[C@H](O)CC[C@@]2(C)[C@@H]1C/C=C1/C(=O)OC[C@H]1Oc1c(Cl)cc(Cl)c2cccnc12"
category_label = "true"

[[record]]
structure_smiles = "C=C1CC[C@@H]2[C@](C)(CO)[C@H](O)CC[C@@]2(C)[C@@H]1C/C=C1/C(=O)OC[C@@H]1Oc1cccc2ccc(C)nc12"
category_label = "false"

[[record]]
structure_smiles = "C=C1CC[C@@H]2[C@](C)(CO)[C@H](O)CC[C@@]2(C)[C@@H]1C/C=C1/C(=O)OC[C@@H]1Oc1cccc2cccnc12"
category_label = "true"


====

# experiment.summary: Selectivity index, ratio of CC50 for African green monkey Vero cells to EC50 for Zika virus PRVABC-59
# Type: toxicity
# condition.notes: read-out: Ratio CC50/EC50
recorded.endpoint: selectivity ratio

[[record]]
structure_smiles = "C=C1CC[C@@H]2[C@](C)(CO)[C@H](O)CC[C@@]2(C)[C@@H]1C/C=C1/C(=O)OC[C@H]1Oc1c(Cl)cc(Cl)c2cccnc12"
measured_number = 7.5

[[record]]
structure_smiles = "C=C1CC[C@@H]2[C@](C)(CO)[C@H](O)CC[C@@]2(C)[C@@H]1C/C=C1/C(=O)OC[C@H]1Oc1ccnc2ccccc12"
measured_number = 2.1

[[record]]
structure_smiles = "C=C1CC[C@@H]2[C@]3(C)COC(C)(C)O[C@@H]3CC[C@@]2(C)[C@@H]1C/C=C1/C(=O)OC[C@H]1Oc1cccc2ccc(C)nc12"
measured_number = 3.9


====

# experiment.summary: Selectivity index, ratio of CC50 for human SNB19 cells to EC50 for Zika virus PRVABC-59
# Assay type: toxicity
# condition.notes: read-out: Ratio CC50/EC50
selectivity ratio values, listed per item
recorded.endpoint: selectivity ratio

[[record]]
structure_smiles = "C=C1CC[C@@H]2[C@](C)(CO)[C@H](O)CC[C@@]2(C)[C@@H]1C/C=C1/C(=O)OC[C@H]1Oc1cccnc1[N+](=O)[O-]"
recorded_endpoint = "selectivity ratio"
measurement_qualifier = "="
measured_number = 5.4

[[record]]
structure_smiles = "C=C1CC[C@@H]2[C@](C)(COC(C)=O)[C@H](O)CC[C@@]2(C)[C@@H]1C/C=C1/C(=O)OC[C@H]1Oc1c(Cl)cc(Cl)c2cccnc12"
recorded_endpoint = "selectivity ratio"
measurement_qualifier = "="
measured_number = 19.7

[[record]]
structure_smiles = "C=C1CC[C@@H]2[C@](C)(CO)[C@H](O)CC[C@@]2(C)[C@@H]1C/C=C1/C(=O)OC[C@@H]1Oc1cccc2ccc(C)nc12"
recorded_endpoint = "selectivity ratio"
measurement_qualifier = ">"
measured_number = 3.9

